molecular target: IGF1R (Homo sapiens); assay: Cellular IGF-1R assay: inhibition of IGF1R phosphorylation in transduced Hek293 cells, capture ELISA (MSD); assay type: cell-based; set-up: Hek293 cells transduced with the corresponding receptors; expressed in transfected cells; host or cells: Hek293 (Hek293-IGF1R)
Sequence (P08069 31-1367): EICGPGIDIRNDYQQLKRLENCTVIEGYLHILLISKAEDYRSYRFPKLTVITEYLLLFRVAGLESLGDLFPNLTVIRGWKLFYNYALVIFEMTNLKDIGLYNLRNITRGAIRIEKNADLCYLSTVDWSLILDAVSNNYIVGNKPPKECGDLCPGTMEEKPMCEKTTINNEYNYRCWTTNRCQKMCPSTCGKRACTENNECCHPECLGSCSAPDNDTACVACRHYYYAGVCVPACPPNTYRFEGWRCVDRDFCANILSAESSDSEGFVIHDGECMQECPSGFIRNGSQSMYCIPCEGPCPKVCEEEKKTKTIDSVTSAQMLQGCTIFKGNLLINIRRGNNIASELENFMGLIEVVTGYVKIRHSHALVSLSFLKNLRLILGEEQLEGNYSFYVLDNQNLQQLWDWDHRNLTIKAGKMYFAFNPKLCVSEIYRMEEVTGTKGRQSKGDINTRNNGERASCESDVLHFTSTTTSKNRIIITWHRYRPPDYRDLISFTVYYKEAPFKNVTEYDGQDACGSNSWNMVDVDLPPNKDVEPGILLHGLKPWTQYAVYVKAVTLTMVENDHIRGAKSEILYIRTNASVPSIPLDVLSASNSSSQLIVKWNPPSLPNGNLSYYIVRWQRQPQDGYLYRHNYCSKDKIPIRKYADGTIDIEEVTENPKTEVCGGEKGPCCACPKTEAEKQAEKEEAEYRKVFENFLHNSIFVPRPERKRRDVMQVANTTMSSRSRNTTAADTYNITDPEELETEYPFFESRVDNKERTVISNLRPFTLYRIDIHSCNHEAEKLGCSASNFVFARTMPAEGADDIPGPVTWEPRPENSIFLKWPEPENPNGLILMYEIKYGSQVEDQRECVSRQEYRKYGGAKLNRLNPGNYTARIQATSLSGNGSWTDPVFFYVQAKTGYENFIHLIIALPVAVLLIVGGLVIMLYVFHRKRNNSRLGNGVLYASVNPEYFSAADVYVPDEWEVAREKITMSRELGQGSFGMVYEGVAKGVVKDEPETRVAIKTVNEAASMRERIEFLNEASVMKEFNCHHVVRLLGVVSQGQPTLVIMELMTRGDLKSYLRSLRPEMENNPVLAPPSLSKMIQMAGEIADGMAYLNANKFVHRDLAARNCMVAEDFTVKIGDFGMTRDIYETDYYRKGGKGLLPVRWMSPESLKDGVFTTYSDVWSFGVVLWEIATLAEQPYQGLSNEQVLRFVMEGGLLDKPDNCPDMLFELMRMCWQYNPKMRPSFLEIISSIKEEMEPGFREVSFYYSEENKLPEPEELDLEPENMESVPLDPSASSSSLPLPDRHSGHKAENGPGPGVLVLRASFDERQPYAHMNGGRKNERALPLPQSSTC
endpoint: IC50 (nM)

* CC(=O)N[C@H]1CC[C@@H](n2cc(-c3ccc4c(c3)OC(c3ccccc3)CC4)c3c(N)ncnc32)CC1 (mixture of isomers) | 108

(P) Nc1nccn2c1c(-c1ccc3c(c1)O[C@@H](c1ccccc1)C=C3)nc2[C@H]1C[C@@H](CO)C1 (relative stereo)
(Q) Cc1nccn1C[C@H]1C[C@@H](c2nc(-c3ccc4c(c3)OC(c3ccccc3)CC4)c3c(N)nccn32)C1 (mixture of isomers)
Lookup: Between the entries labelled P and Q , which has a larger IC50 value on record? Answer = label.
Found: P
